A collection of binders and their measured Reporter Assay EC50
- tested_system: human PD-1 expressed on cells (CHO human PD-1 cells) (human, UniProt Q15116 21-288)
- Sequence (Q15116 21-288): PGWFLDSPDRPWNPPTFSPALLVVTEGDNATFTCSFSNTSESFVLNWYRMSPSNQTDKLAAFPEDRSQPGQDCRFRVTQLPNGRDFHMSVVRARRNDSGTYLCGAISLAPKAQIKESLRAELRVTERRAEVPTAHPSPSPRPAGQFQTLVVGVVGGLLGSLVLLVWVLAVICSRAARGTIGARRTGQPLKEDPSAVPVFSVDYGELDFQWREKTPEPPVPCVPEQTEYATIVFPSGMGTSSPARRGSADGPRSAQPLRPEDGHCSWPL
- test_name: cell-based or functional assay
endpoint: Reporter Assay EC50

binder	result
Humabody® 1.44 (VHH, human VH single domain antibody) VHH: QVQLVESGGGLVKPGGSLRLSCAASGFTFSDNSMTWMRQAPGKGLEWVSYISSGGAVKFYADSVKGRFTISRDNAKNSLYLQMNSLRADDTAVYYCAREAPLRLGESPHDAFDIWGQGTMVTVSS	41 nM
Humabody® 1.69 (VHH) VHH: QVQLVESGGGLVKPGGSLRLSCAASGFTFSDNSMSWMRQAPGKGLEWVSYISSGGGVIFYADSVKGRFTISRDNAKNSLYLQMNSLRADDTAVYYCAREAPLRLGESPHDAFDISGQGTMVTVSS	35 nM
Humabody® 1.46 (VHH, human VH single domain antibody) VHH: QVQLVESGGGLVKPGGSLRLSCAASGFTFSDSSMSWMRQAPGKGLEWVSYISSGGGVIFYADSVKGRFTISRDNAKNSLYLQMNSLRADDTAVYYCAREAPLRLGESPHDAFDIWGQGTMVTVSS	45 nM
Humabody® 1.62 (VHH, human VH single domain antibody) VHH: QVQLVESGGGLVKPGGSLRLSCAASGFTFSDSSMTWMRQAPGKGLEWVSYISSGGAVKFYTDSVKGRFTISRDNAKNSLYLQMNSLRADDTAVYYCAREAPLRLGESPHDAFDISGQGTMVTVSS	14 nM

Hey, just so you know, these numbers are from patent US20200239573A1.
